- assay.notes: Drug absorption in intestine (unknown origin) assessed as serosal transfer
- Format: ADME, tissue-based
Please respond with reported log%Abs for every item in the list.
Numbers only.

Below, 3 compounds whose answers are already recorded.
// lookup log%Abs for CCCCOC(N)=O
0.82

Repeat for the following compound: CCCOC(N)=O
0.71

Repeat for the following compound: CCC(C)(C)OC(N)=O
0.68

Hey, quick one: what's log%Abs for each of these?
1. CC(C)COC(N)=O
2. NC(=O)OCc1ccccc1 [BENZYL CARBAMATE]
3. COC(N)=O [METHYL CARBAMATE]
4. CCCCCCCOC(N)=O
5. CC(C)(C)OC(N)=O
6. CCCC(C)(C)OC(N)=O
7. CCCCCCOC(N)=O
8. CCCCCCCCOC(N)=O

0.75
0.59
0.45
-0.17
0.65
0.09
0.35
-0.43

Hey, quick one: what's log%Abs for each of these?
1. CCCCCOC(N)=O
2. CCOC(N)=O [URETHANE]

0.57
0.53

---

- Test system: Mus musculus
- assay.notes: Induction of anesthetic activity in mouse
- Type: functional
readout: -log(1/AD50)
Give bare numbers.

// lookup -log(1/AD50) for CCCC1(CC(C)(C)C)C(=O)NC(=O)NC1=O
3.04

Repeat for the following compound: CC(C)CC1(CC(C)(C)C)C(=O)NC(=O)NC1=O
3.27

Repeat for the following compound: CCC1(CC(C)(C)C)C(=O)NC(=O)NC1=O
2.91

Then there is this compound:
// lookup -log(1/AD50) for CCCC1(C(C)C(C)(C)C)C(=O)NC(=O)NC1=O (centres undefined)
3.29

---

- assay.notes: Drug absorption in intestine (unknown origin) assessed as mucosal loss
- Format: ADME, tissue-based
Please respond with reported log%Abs for every item in the list.
One number for each entry.

Below, 2 molecules whose answers are already recorded.
// lookup log%Abs for CCCCCOC(N)=O
0.68

Repeat for the following molecule: NC(=O)OCc1ccccc1 [BENZYL CARBAMATE]
0.69

Then there is this molecule:
// lookup log%Abs for CCC(C)(C)OC(N)=O
0.77

---

- Test system: Mycobacterium tuberculosis
- assay.notes: Antimicrobial activity against Mycobacterium tuberculosis
- Format: functional
Threshold 5: -log(1/MIC) strictly smaller gives fulfilled, otherwise not fulfilled.

Below 5 on -log(1/MIC)? Entry CCCCCCCOc1ncccc1N
fulfilled

Next:
Below 5 on -log(1/MIC)? Entry CCOc1ccc(N)cc1
fulfilled

Repeat for the following compound: CCCCCCOc1ccc(N)cn1
not fulfilled

Repeat for the following compound: CCCCCOc1ccc(N)cc1
not fulfilled

Repeat for the following compound: CCCCOc1ccc(N)cc1
not fulfilled

Repeat for the following compound: CCCCCOc1ncccc1N
not fulfilled
